- TEST: Therapeutic index, ratio of LD50 for toxicity in rat to HD50 for anesthetic activity in rat
- PROTOCOL CONDITIONS: read-out: TI
TEST READOUT: selectivity ratio

[
  {
    "ITEM SMILES": "CCCOC(=O)Cc1ccc(OCC(=O)N(CC)CC)c(OC)c1",
    "TEST READOUT": "selectivity ratio",
    "MEASURED": 9.6
  },
  {
    "ITEM SMILES": "CCCOC(=O)Cc1ccc(OCC(=O)N2CCN(c3ccccc3)CC2)c(OCC)c1",
    "TEST READOUT": "selectivity ratio",
    "MEASURED": 10.3
  },
  {
    "ITEM SMILES": "CCCOC(=O)Cc1ccc(OCC(=O)N(CC)CC)c(OCC)c1",
    "TEST READOUT": "selectivity ratio",
    "MEASURED": 10.1
  }
]

----------
- TEST: Therapeutic index, ratio of LD50 for toxicity in mouse to HD50 for anesthetic activity in mouse
- Format: organism-based
- PROTOCOL CONDITIONS: in vivo, read-out: TI
Reported selectivity ratio values for a set of compounds
TEST READOUT: selectivity ratio

[
  {
    "ITEM SMILES": "CCOc1cc(CC(=O)OCC(F)(F)F)ccc1OCC(=O)N1CCN(c2ccccc2)CC1",
    "TEST READOUT": "selectivity ratio",
    "MEASURED": 7.8
  },
  {
    "ITEM SMILES": "CCOC(=O)Cc1ccc(OCC(=O)N2CCN(c3cccc(Cl)c3Cl)CC2)c(OCC)c1",
    "TEST READOUT": "selectivity ratio",
    "MEASURED": 6.5
  },
  {
    "ITEM SMILES": "CCCOC(=O)Cc1ccc(OCC(=O)N(CC)CC)c(OCC)c1",
    "TEST READOUT": "selectivity ratio",
    "MEASURED": 6
  },
  {
    "ITEM SMILES": "CCCOC(=O)Cc1ccc(OCC(=O)N2CCN(c3cccc(C)c3C)CC2)c(OCC)c1",
    "TEST READOUT": "selectivity ratio",
    "MEASURED": 6.3
  },
  {
    "ITEM SMILES": "CCCOC(=O)Cc1ccc(OCC(=O)N2CCN(c3ccccc3)CC2)c(OCC)c1",
    "TEST READOUT": "selectivity ratio",
    "MEASURED": 8
  },
  {
    "ITEM SMILES": "CCOc1cc(CC(=O)OC(C)C)ccc1OCC(=O)N1CCN(c2ccccc2)CC1",
    "TEST READOUT": "selectivity ratio",
    "MEASURED": 7.2
  }
]

----------
- ASSAYED SYSTEM: GABA-A receptor; anion channel (Homo sapiens) (UniProt P14867+P47870+P18507+P28472+P48169+Q99928+Q9UN88+P34903+O00591+O14764+Q8N1C3+P18505+P78334+P47869+P31644+Q16445)
- TEST: Inhibition of GABAA receptor (unknown origin) at 50 uM by radioligand receptor binding assay relative to control
- Format: protein-complex assay
Is inhibition at least 40%? Then rule met. If not, rule not met.

[
  {
    "COMPOUND": "CCOc1cc(CC(=O)OC(C)C)ccc1OCC(=O)N1CCN(c2ccccc2)CC1",
    "CATEGORY": "rule met"
  },
  {
    "COMPOUND": "CCCOC(=O)Cc1ccc(OCC(=O)N2CCN(c3cccc(Cl)c3Cl)CC2)c(OCC)c1",
    "CATEGORY": "rule not met"
  },
  {
    "COMPOUND": "CCOc1cc(CC(=O)OC(C)C)ccc1OCC(=O)N1CCN(c2cccc(C)c2C)CC1",
    "CATEGORY": "rule met"
  },
  {
    "COMPOUND": "CCOC(=O)Cc1ccc(OCC(=O)N2CCN(c3ccccc3)CC2)c(OCC)c1",
    "CATEGORY": "rule not met"
  },
  {
    "COMPOUND": "CCOc1cc(CC(=O)OCC(F)(F)F)ccc1OCC(=O)N1CCN(c2cccc(C)c2C)CC1",
    "CATEGORY": "rule not met"
  },
  {
    "COMPOUND": "CCOc1cc(CC(=O)OCC(F)(F)F)ccc1OCC(=O)N1CCN(c2ccccc2)CC1",
    "CATEGORY": "rule met"
  },
  {
    "COMPOUND": "CCCOC(=O)Cc1ccc(OCC(=O)N(CC)CC)c(OCC)c1 [AZD-3043]",
    "CATEGORY": "rule met"
  },
  {
    "COMPOUND": "CCOC(=O)Cc1ccc(OCC(=O)N2CCN(c3cccc(C)c3C)CC2)c(OCC)c1",
    "CATEGORY": "rule not met"
  },
  {
    "COMPOUND": "CCCOC(=O)Cc1ccc(OCC(=O)N2CCN(c3ccccc3)CC2)c(OC)c1",
    "CATEGORY": "rule not met"
  },
  {
    "COMPOUND": "CCCOC(=O)Cc1ccc(OCC(=O)N2CCN(c3ccccc3)CC2)c(OCC)c1",
    "CATEGORY": "rule met"
  },
  {
    "COMPOUND": "CCOc1cc(CC(=O)OCC(F)(F)F)ccc1OCC(=O)N1CCN(c2cccc(C(F)(F)F)c2)CC1",
    "CATEGORY": "rule not met"
  }
]
